The measurements presented in this section are drawn from ChEMBL document CHEMBL1157928.

Target: UniProt P30305
Sequence (P30305 whole entry): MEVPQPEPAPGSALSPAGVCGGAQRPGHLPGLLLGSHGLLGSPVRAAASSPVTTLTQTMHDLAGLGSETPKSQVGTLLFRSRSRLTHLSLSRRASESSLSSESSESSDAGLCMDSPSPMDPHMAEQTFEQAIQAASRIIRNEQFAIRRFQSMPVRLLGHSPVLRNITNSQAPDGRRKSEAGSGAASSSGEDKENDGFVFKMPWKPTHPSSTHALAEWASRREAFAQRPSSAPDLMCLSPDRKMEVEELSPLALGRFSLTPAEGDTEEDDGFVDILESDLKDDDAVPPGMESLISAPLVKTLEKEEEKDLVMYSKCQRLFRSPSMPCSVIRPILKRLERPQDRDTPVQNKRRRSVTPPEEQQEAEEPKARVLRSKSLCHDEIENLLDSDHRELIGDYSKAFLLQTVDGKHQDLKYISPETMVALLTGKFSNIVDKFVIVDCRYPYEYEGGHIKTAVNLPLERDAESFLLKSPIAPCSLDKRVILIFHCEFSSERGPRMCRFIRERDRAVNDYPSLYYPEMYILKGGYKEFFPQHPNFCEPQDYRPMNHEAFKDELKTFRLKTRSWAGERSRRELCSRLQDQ
Test: Inhibition of CDC25B
Settings: read-out: IC50
test.readout: log10 of IC50 (log10 of the value in µM)
Log scale reminder: IC50 in µM, then log10 taken.

I have this molecule here, CCCCCCCCCCCCCCCCCC(=O)c1n[nH]c2c1C(=O)N(c1ccsc1C(=O)OC)C2=O , and I need its recorded log10 of IC50. -0.47

// query log10 of IC50 value for entry CCCCCCCCCCCCCCCCCC(=O)c1n[nH]c2c1C(=O)N(Cc1ccc(F)cc1)C2=O 0.32

Request the reported log10 of IC50 associated with CCCCCCCCCCCCCCCCCC(=O)c1n[nH]c2c1C(=O)N(c1ccccc1C)C2=O 0.33

Reported log10 of IC50 for CCCCCCCCCCCCCCCCCC(=O)c1n[nH]c2c1C(=O)N(c1ccc(F)c(Cl)c1)C2=O : what is it? 0.06

I'd like to know its log10 of IC50. The molecule in question is CCCCCCCCCCCCCCCCCC(=O)c1cc(C(=O)Nc2ccccc2C(=O)OC)[nH]n1 0.71

* * *

molecular target: Tyrosine-protein phosphatase non-receptor type 11 (Homo sapiens, UniProt Q06124); test: Inhibition of SHP2; details: read-out: IC50
Sequence (Q06124 whole entry): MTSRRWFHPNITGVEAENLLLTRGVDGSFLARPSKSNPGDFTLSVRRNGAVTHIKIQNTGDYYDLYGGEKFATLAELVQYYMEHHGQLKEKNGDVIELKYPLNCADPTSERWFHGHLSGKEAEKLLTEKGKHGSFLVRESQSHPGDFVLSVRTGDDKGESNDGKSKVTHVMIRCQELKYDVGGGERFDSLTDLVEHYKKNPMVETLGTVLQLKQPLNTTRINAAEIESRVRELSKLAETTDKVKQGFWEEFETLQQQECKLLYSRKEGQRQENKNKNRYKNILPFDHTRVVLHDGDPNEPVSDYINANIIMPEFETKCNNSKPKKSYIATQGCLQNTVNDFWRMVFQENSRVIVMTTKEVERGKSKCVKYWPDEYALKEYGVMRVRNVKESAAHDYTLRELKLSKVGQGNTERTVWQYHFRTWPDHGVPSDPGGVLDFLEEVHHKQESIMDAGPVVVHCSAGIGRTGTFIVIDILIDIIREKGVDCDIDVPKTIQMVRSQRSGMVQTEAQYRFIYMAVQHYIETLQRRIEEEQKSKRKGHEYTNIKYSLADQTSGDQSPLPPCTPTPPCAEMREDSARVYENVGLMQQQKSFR
test.readout: IC50 (µM)
Write the value in µM as a bare number.

INSERT INTO results (smiles_input, test_readout, readout_unit, quantitative_result) VALUES
  ('CCCCCCCCCCCCCCCCCC(=O)c1n[nH]c2c1C(=O)N(c1ccccc1)C2=O', 'IC50', 'µM', 9.59);

Report IC50 for CCCCCCCCCCCCCCCCCC(=O)c1cc(C(=O)Nc2ccsc2C(=O)O)[nH]n1 tested on Tyrosine-protein phosphatase non-receptor type 11 (Homo sapiens, UniProt Q06124). 12.2

Hi! What's the reported IC50 for CCCCCCCCCCCCCCCCCC(=O)c1cc(C(=O)Nc2ccccc2C(=O)O)[nH]n1 on Tyrosine-protein phosphatase non-receptor type 11 (Homo sapiens, UniProt Q06124)? 15.2

* * *

biological target: M-phase inducer phosphatase 2 (Homo sapiens, UniProt P30305); experiment: Inhibition of CDC25B; conditions: read-out: IC50
pIC50: −log10 of the molar value.
Given measured pIC50, output 1 if it is greater than or equal to 6 and 0 if not.

# count of solved cases: 5
INSERT INTO results (smiles_input, assigned_label) VALUES
  ('CCOC(=O)c1n[nH]c2c1C(=O)N(c1ccc([N+](=O)[O-])cc1)C2=O', 0),
  ('CCCCCCCCCCCCCCCCCC(=O)c1n[nH]c2c1C(=O)N(c1ccc([N+](=O)[O-])cc1)C2=O', 1),
  ('CCCCCCCCCCCCCCCCCC(=O)c1n[nH]c2c1C(=O)N(c1ccc(C)cc1)C2=O', 0),
  ('CCCCCCCCCCCCCCCCCC(=O)c1n[nH]c2c1C(=O)N(c1ccc(Cl)cc1)C2=O', 1),
  ('CCCCCCCCCCCCCCCCCC(=O)c1nn(C)c2c1C(=O)N(c1ccccc1)C2=O', 0);

// inclusive: pIC50 at least 6? input: CCCCCCCCCCCCCCCCCC(=O)c1n[nH]c2c1C(=O)N(c1ccccc1Br)C2=O 1

Item CCCCCCCCCCCCCCCCCC(=O)c1n[nH]c2c1C(=O)N(c1cccc3ccccc13)C2=O with pIC50 of 6 or above? 1

Is the recorded value of pIC50 equal to or greater than 6 for this molecule? CCCCCCCCCCCCCCCCCC(=O)c1n[nH]c2c1C(=O)N(c1cccc(Cl)c1)C2=O 1

Quick check, pIC50 >= 6? CCCCCCCCCCCCCCCCCC(=O)c1n[nH]c2c1C(=O)N(c1ccc(OC)cc1)C2=O 1

* * *

biological target: M-phase inducer phosphatase 2 (Homo sapiens); experiment: Inhibition of CDC25B; conditions: read-out: IC50
test.readout: IC50 (nM)
Express your answer in nM, writing the number without its unit.

INSERT INTO results (smiles_input, test_readout, quantitative_result) VALUES
  ('CCCCCCCCCCCCCCCCCC(=O)c1n[nH]c2c1C(=O)N(c1ccccc1)C2=O', 'IC50', 230),
  ('CCCCCCCCCC(=O)c1n[nH]c2c1C(=O)N(c1ccc([N+](=O)[O-])cc1)C2=O', 'IC50', 1390),
  ('CCCCCCCCCCCCCCCCCC(=O)c1n[nH]c2c1C(=O)N(c1ccc(C(=O)OC)cc1)C2=O', 'IC50', 490),
  ('CCCCCCCCCCCCCCCCCC(=O)c1n[nH]c2c1C(=O)N(c1cccc(OC)c1)C2=O', 'IC50', 520),
  ('CCCCCCCCCCCCCCCCCC(=O)c1n[nH]c2c1C(=O)N(c1cccc(Br)c1)C2=O', 'IC50', 1010),
  ('CCCCCCCCCCCCCCCCCC(=O)c1cc(C(=O)Nc2ccccc2C(=O)O)[nH]n1', 'IC50', 160),
  ('CCCCCCCCCCCCCCCCCC(=O)c1n[nH]c2c1C(=O)N(c1ccccc1C(=O)OC)C2=O', 'IC50', 410),
  ('CCOC(=O)c1n[nH]c2c1C(=O)N(c1ccc(Cl)cc1)C2=O', 'IC50', 37400);

Below: the item to evaluate.
Consider the compound CCCCCCCCCCCCCCCCCC(=O)c1cc(C(=O)Nc2ccsc2C(=O)OC)[nH]n1 and give its measured IC50. 3360

* * *

Target: Tyrosine-protein phosphatase non-receptor type 1 (Homo sapiens)
Sequence (P18031 whole entry): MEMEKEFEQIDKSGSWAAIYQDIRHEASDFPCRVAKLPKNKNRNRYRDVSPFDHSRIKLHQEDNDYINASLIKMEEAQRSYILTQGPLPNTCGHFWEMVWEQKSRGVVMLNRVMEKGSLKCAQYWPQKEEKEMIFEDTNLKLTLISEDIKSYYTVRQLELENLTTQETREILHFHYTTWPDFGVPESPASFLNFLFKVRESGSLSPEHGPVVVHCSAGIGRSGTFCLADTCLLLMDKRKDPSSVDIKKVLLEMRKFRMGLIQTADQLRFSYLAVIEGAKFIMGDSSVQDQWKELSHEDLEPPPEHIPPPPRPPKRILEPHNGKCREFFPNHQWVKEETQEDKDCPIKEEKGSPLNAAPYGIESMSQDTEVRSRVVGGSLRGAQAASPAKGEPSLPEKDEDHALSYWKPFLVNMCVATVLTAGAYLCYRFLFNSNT
Assay: Inhibition of PTP1B
Conditions: read-out: IC50
test.readout: IC50 (nM)
The reply should be a number in nM, with the unit left off.

Example results:
INSERT INTO measurements (smiles_input, quantitative_result) VALUES
  ('CCCCCCCCCCCCCCCCCC(=O)c1cc(C(=O)Nc2ccsc2C(=O)O)[nH]n1', 410),
  ('CCCCCCCCCCCCCCCCCC(=O)c1cc(C(=O)Nc2ccccc2C(=O)OC)[nH]n1', 7490),
  ('CCCCCCCCCCCCCCCCCC(=O)c1cc(C(=O)Nc2ccccc2C(=O)O)[nH]n1', 350),
  ('CCCCCCCCCCCCCCCCCC(=O)c1cc(C(=O)Nc2ccsc2C(=O)OC)[nH]n1', 7160);

Now for another entry.
Quick check: IC50 of CCCCCCCCCCCCCCCCCC(=O)c1n[nH]c2c1C(=O)N(c1ccccc1)C2=O ? 1560

* * *

molecular target: Tyrosine-protein phosphatase non-receptor type 2 (Homo sapiens); assay: Inhibition of TCPTP; settings: read-out: IC50
Sequence (P17706 whole entry): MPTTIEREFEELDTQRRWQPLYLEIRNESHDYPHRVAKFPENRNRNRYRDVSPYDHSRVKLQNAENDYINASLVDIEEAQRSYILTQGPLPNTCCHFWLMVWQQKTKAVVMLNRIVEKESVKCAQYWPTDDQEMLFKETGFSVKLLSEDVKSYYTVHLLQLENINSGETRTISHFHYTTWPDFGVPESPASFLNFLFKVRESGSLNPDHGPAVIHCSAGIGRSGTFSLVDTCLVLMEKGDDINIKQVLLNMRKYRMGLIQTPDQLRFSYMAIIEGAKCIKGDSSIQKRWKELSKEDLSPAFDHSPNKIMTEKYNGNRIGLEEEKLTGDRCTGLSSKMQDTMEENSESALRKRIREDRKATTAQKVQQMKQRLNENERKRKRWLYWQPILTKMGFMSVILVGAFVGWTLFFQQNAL
test.readout: IC50 (µM)
Numbers only; they are read as µM.

INSERT INTO measurements (smiles_input, quantitative_result) VALUES
  ('CCCCCCCCCCCCCCCCCC(=O)c1cc(C(=O)Nc2ccsc2C(=O)O)[nH]n1', 1.16),
  ('CCCCCCCCCCCCCCCCCC(=O)c1cc(C(=O)Nc2ccccc2C(=O)OC)[nH]n1', 18.7),
  ('CCCCCCCCCCCCCCCCCC(=O)c1n[nH]c2c1C(=O)N(c1ccccc1)C2=O', 3.31),
  ('CCCCCCCCCCCCCCCCCC(=O)c1cc(C(=O)Nc2ccsc2C(=O)OC)[nH]n1', 18.6);

Let us move to another entry and its IC50.
Which IC50 is reported for this compound? CCCCCCCCCCCCCCCCCC(=O)c1cc(C(=O)Nc2ccccc2C(=O)O)[nH]n1 1.3
